# Read-out: Intercellular Adhesion Molecule 1 (ICAM1), ICAM1 (gene 3383)
# test-summary: BSK_KF3CT_ICAM1: BioMAP Diversity Plus: KF3CT Assay for Intercellular Adhesion Molecule 1 (ICAM1) Biomarker Activity (AID 2283067)
# assay-context: primary human keratinocytes with fibroblasts; actives raise or lower the signal
Activity calls are given as the source filed them. How the source made its calls: active means hit-call score of the fitted dose curve at least 0.9, where 1 is the maximum; inactive means score below 0.9.
Please reply with one of these outcomes: active, inactive

### Prompt Can you look up the reported call for COC(OC)(C(=O)c1ccccc1)c1ccccc1 for me?
### Response inactive

### Prompt Can you look up the reported call for C=CCCCCCCCCC=O for me?
### Response inactive

### Prompt Can you look up the reported call for CCOC(=O)C1=NOC(c2ccccc2)(c2ccccc2)C1 for me?
### Response inactive

### Prompt Can you look up the reported call for C=CC(=O)NCOCCCC for me?
### Response inactive

### Prompt Can you look up the reported call for Clc1cc(Cl)c(Cl)c(Cl)c1Cl for me?
### Response inactive

### Prompt Can you look up the reported call for CC=C(C)C=CC=C(C)C for me?
### Response inactive

### Prompt Can you look up the reported call for CC(C)[N+](C)(CCOC(=O)C1c2ccccc2Oc2ccccc21)C(C)C for me?
### Response inactive

### Prompt Can you look up the reported call for CCCCCCCCC(CO)CCCCCC (configuration not stated) for me?
### Response inactive

### Prompt Can you look up the reported call for O=C(Oc1ccccc1)c1ccccc1C(=O)Oc1ccccc1 for me?
### Response inactive

### Prompt Can you look up the reported call for CCCCCCC=O for me?
### Response inactive

### Prompt Can you look up the reported call for O=C(Cl)c1c(Cl)c(Cl)c(C(=O)Cl)c(Cl)c1Cl for me?
### Response inactive

### Prompt Can you look up the reported call for Nc1cccc(N)n1 for me?
### Response inactive

### Prompt Can you look up the reported call for c1ccc2c(c1)[nH]c1ccccc12 for me?
### Response inactive

### Prompt Can you look up the reported call for CC(CCC(=O)O)(c1ccc(O)cc1)c1ccc(O)cc1 for me?
### Response inactive

### Prompt Can you look up the reported call for CCOC(=O)/C=C\C(=O)OCC for me?
### Response inactive

### Prompt Can you look up the reported call for CCCCCCCCCCCC(C)=O for me?
### Response inactive

### Prompt Can you look up the reported call for CC(C)CCCCCOC(=O)CS for me?
### Response inactive

### Prompt Can you look up the reported call for C1CNCCN1 for me?
### Response inactive

### Prompt Can you look up the reported call for CC1=CC=C(C(C)C)CC1 for me?
### Response inactive

### Prompt Can you look up the reported call for CCNc1nc(NC(C)(C)C)nc(OC)n1 for me?
### Response inactive

### Prompt Can you look up the reported call for C=CC(=O)OCCCCCCOC(=O)C=C for me?
### Response active

### Prompt Can you look up the reported call for O=C1CCCCCCCCCCCN1 for me?
### Response inactive

### Prompt Can you look up the reported call for Cc1ccc([N+](=O)[O-])cc1N for me?
### Response inactive

### Prompt Can you look up the reported call for O=C1CCCCCCCCCCC1 for me?
### Response inactive

### Prompt Can you look up the reported call for C=CC(=O)OCC(C)OCC(C)OCC(C)OC(=O)C=C (configuration not stated) for me?
### Response active

### Prompt Can you look up the reported call for CC/C=C\C/C=C\C/C=C\CCCCCCCC(=O)OC for me?
### Response active

### Prompt Can you look up the reported call for Oc1ccccc1Cc1ccccc1O for me?
### Response inactive

### Prompt Can you look up the reported call for CCCCCCCO for me?
### Response inactive

### Prompt Can you look up the reported call for Nc1ccc(C(=O)O)cc1 for me?
### Response inactive

### Prompt Can you look up the reported call for CC/C=C\CCOC(=O)c1ccccc1O for me?
### Response active

### Prompt Can you look up the reported call for CCCCCCCCCCCC(=O)N(C)CC(=O)O for me?
### Response inactive

### Prompt Can you look up the reported call for Oc1c(Cl)cc(Cl)c(Cl)c1Cl for me?
### Response active
